System: SK-MEL-2 melanoma
Assay: NCI-60 one-dose screen, 48 h
Settings: 10 µM unless noted
Experimental: Growth inhibition of the SK-MEL-2 human tumor cell line is measured as a screen for anti-cancer activity. Cells are grown in 96 well plates and exposed to the test compound for 48 hours. Compounds are tested at a single concentration, which is 10^-5 M for most compounds. The reported endpoint is percent growth (GI% or GIPRCNT), where numbers from 0 - 100% represent growth inhibition, and numbers from -100% - 0 represent cell death. For example, a value of 40 represents 60% growth inhibition. […]
The panel holds about 83,000 compounds, 20% with a hit somewhere; the sample as a whole holds those more often. Activity calls are given as the source filed them. The calls were made as follows: active = growth percent below 10; inactive = the rest.
Output constraint: value belongs to y = active, n = inactive

Illustrative cases are given below, each with its answer.
1. Nc1cccc(CC(=O)Nc2ccc(S(=O)(=O)F)cc2)c1 ... n
2. C[C@@H]1O[C@@H](O[C@H]2CC[C@@]3(C)[C@H](CCC4[C@@H]3C(O)C[C@]3(C)[C@@H](c5ccc(=O)oc5)CC[C@]43O)C2)[C@H](O)[C@H](O)[C@H]1O (stereo partly drawn) ... y
3. Cc1ccc2oc(=O)c3c(c2c1)OC(N)=C(C#N)C3c1ccco1 (stereo not drawn) ... n
4. O=C(CCc1ccco1)NC1CCN(CC2(c3ccc(Cl)cc3)CCC2)CC1 ... y
5. CC(C)CCC[C@@H](C)[C@H]1CC[C@H]2[C@@H]3CC=C4C[C@@H](OC(=O)Cc5ccc(N(CCCl)CCCl)cc5)CC[C@]4(C)[C@H]3CC[C@]12C ... n

Prompt line: What classification did CCCCN(CCCC)CC(O)c1ccccc1 (stereo not drawn) end up with in this test?
Response line: n

Prompt line: What classification did "COc1ccc(/C=C(/C(=O)N2CCCC2)c2cc(OC)c(OC)c(OC)c2)cc1N" end up with in this test?
Response line: n

Prompt line: What classification did "Cc1cc(N(CCCl)CCCl)ccc1C=Nc1ccc2ccccc2c1" end up with in this test?
Response line: n

Prompt line: What classification did CC1([N+](=O)[O-])COP(=O)(Nc2ccc(F)cc2)OC1 (stereo not drawn) end up with in this test?
Response line: n

Prompt line: What classification did COc1cc(C2=NN(c3ccccc3)C(c3sc(N(CCCl)CCCl)nc3Cl)C2)cc(OC)c1OC (stereo not drawn) end up with in this test?
Response line: n

Prompt line: What classification did "Cc1cc(NC(=O)NCCOc2ccc(N3C(N)=NC(N)=NC3(C)C)cc2Cl)ccc1S(=O)(=O)F" end up with in this test?
Response line: n

Prompt line: What classification did "[O]=[Sn]([CH]1CCCCC1)[CH]1CCCCC1" end up with in this test?
Response line: y

Prompt line: What classification did CC(=O)O[C@H]1CCC2C3CCC4=C/C(=N/O)CCC4(C)C3CCC21C (stereo partly drawn) end up with in this test?
Response line: n

Prompt line: What classification did "Clc1ccc(SSC(Cl)(Cl)Cl)cc1" end up with in this test?
Response line: n

Prompt line: What classification did "CC(C)N=C(NC(C)C)N1CC1" end up with in this test?
Response line: n

Prompt line: What classification did "O=C1NC2(CCNCC2)Nc2ccccc21" end up with in this test?
Response line: n

Prompt line: What classification did "C[C@]12CC[C@H]3[C@@H](C[C@@H]4N=C(c5ccc(O)cc5)S[C@@]45C[C@H](O)CC[C@]35C)[C@@H]1CC[C@@H]2O" end up with in this test?
Response line: n

Prompt line: What classification did "OB([O][Hg][c]1ccccc1)[O][Hg][c]1ccccc1" end up with in this test?
Response line: y

Prompt line: What classification did CC(N)Cc1ccc(O)cc1 (stereo not drawn) end up with in this test?
Response line: n

Prompt line: What classification did "COc1cc(C2(C#N)CCN(C)CC2)cc(OC)c1OC" end up with in this test?
Response line: n

Prompt line: What classification did "O=[N+]([O-])c1ccccc1N1CCNCC1" end up with in this test?
Response line: n

Prompt line: What classification did CCOc1ccc(C(O)CN(C)Cc2ccccc2)cc1Cl (stereo not drawn) end up with in this test?
Response line: n
